Data provenance is paper PMC3179492.

Tested on: primary rat adipocytes
Experiment: 2-Deoxyglucose uptake in insulin-stimulated primary rat adipocytes (predominantly GLUT4)
Type: cell-based
Conditions: 50 µM PI, primary rat adipocytes
Procedure: Adipocytes from epididymal fat pads were prepared from male Wistar rats weighing 150 – 200 g (from Charles River Laboratories, Inc., Wilmington, MA) as previously described. Adipocytes were stimulated with 1 µM insulin for 30 min at 37°C prior to use. […] The cells were separated by spinning the reaction through dinonylphthalate as previously described and the intracellular radioactivity was quantified by liquid scintillation counting. […]
Property: Effect on 2-deoxyglucose uptake (GLUT4 transporter activity)

Compound: COC(=O)N[C@H](C(=O)N[C@@H](Cc1ccccc1)[C@@H](O)CN(Cc1ccc(-c2ccccn2)cc1)NC(=O)[C@@H](NC(=O)OC)C(C)(C)C)C(C)(C)C [Atazanavir, atazanavir]
Readout value: affected

Compound: CC(C)c1nc(CN(C)C(=O)N[C@H](C(=O)N[C@@H](Cc2ccccc2)C[C@H](O)[C@H](Cc2ccccc2)NC(=O)OCc2cncs2)C(C)C)cs1 [Ritonavir, ritonavir]
Readout value: affected

Compound: CC(C)(C)NC(=O)[C@@H]1CN(Cc2cccnc2)CCN1C[C@@H](O)C[C@@H](Cc1ccccc1)C(=O)N[C@H]1c2ccccc2C[C@H]1O [Indinavir, indinavir]
Readout value: affected
